assay summary: solvent given as SMILES
recorded conditions: in CCOC(C)=O
Note to self: values exactly at -4 kcal/mol are 1. So solvation free energy, 298 K at or above -4 kcal/mol is 1, below is 0.

| molecule | assigned category |
| --- | --- |
| CCCCCCCCCCCCCCCCCCCCCC | 0 |
| O=S(=O)(c1ccccc1)c1ccccc1 | 0 |
| O=C(O)Cc1ccccc1 | 0 |
| CCCCCC | 1 |
| CCO | 0 |
| CC#N | 0 |
| CCCCC | 1 |
| O=C(O)c1cccc([N+](=O)[O-])c1C(=O)O | 0 |
| O=C(O)c1cc([N+](=O)[O-])ccc1Cl | 0 |
| O=C(O)c1ccc(Cl)c([N+](=O)[O-])c1 | 0 |
| CCC(C)C(=O)OC1CC(C)C=C2C=CC(C)C(CCC3CC(O)CC(=O)O3)C21 (stereo not drawn) | 0 |
| CC=CC | 1 |
| CC(C)C(C)C(C)C | 0 |
| C=CC | 1 |
| CI | 1 |
| c1ccc2ccccc2c1 | 0 |
| CC(C)CCC(C)C | 0 |
| C=C(C)C | 1 |
| CCCCCCCCCCCCCCCCCCCCCCC | 0 |
| [N]=O | 1 |
| COc1ccc(C(=O)O)cc1 | 0 |

---

assay summary: solvent given as SMILES
recorded conditions: in O
Lab note: class by solvation free energy, 298 K, see lowest (below -30 kJ/mol), middle (-30 kJ/mol to below -10 kJ/mol), highest (-10 kJ/mol or more)

| compound | assigned category |
| --- | --- |
| C=C(C)C1CC=C(C)C(OC(=O)CC)C1 (stereo not drawn) | middle |
| Oc1ccccc1 | middle |
| CC(C)CCOC(=O)c1ccccc1C(=O)OCCC(C)C | middle |
| C=C(C)C1CC=C(C)C(OC(C)=O)C1 (stereo not drawn) | middle |
| CSc1ccccc1 | middle |
| O=C(O)CCCCc1ccccc1 | lowest |
| c1ccc2c(c1)OCCOCCOc1ccccc1OCCOCCO2 | lowest |
| C=CCCC(C)C | highest |
| C=C(C)C(=O)OC | middle |
| CCOC(=O)OCC | middle |
| Clc1cccnc1 | middle |
| CCCCCCCCCCCCCCCCCCCC | highest |
| O=S(=O)(c1ccccc1)c1ccccc1 | lowest |
| OCCCc1ccccc1 | middle |
| O=C(O)c1cccc([N+](=O)[O-])c1C(=O)O | lowest |
| CCc1ccccc1 | highest |
| CCOC(C)OCC | middle |
| CSC | highest |
| CCCCCC(C)O (stereo not drawn) | middle |
| Clc1ccc2c(c1)Oc1ccccc1O2 | middle |
| COc1ccc(C(c2ccc(OC)cc2)C(Cl)(Cl)Cl)cc1 | middle |
| CC1CCCC(C)(C)C1 (stereo not drawn) | highest |
| CC(=O)CC(=O)C(F)(F)F | middle |
| FC(F)(F)CCl | highest |
| C1CCCCCCC1 | highest |
| CCCSC(=O)N(CCC)CCC | middle |
| O=C(O)Cc1ccccc1 | lowest |
| CC(=O)c1cccnc1 | lowest |

---

assay summary: solvent given as SMILES
recorded conditions: in Cc1cccc(C)c1
Short version: solvation free energy, 298 K at least -8 kcal/mol is 1, less is -1.

| molecular string | assigned category |
| --- | --- |
| c1cc2ccc3cccc4ccc(c1)c2c34 | -1 |
| Cc1ccc(C)c(O)c1 | 1 |
| C=CC | 1 |
| c1ccc2c(c1)OCCOCCOCCOCCO2 | -1 |
| CCOCC | 1 |
| CCCCC | 1 |
| CC(C)=O | 1 |
| c1ccc2c(c1)OCCOCCOc1ccccc1OCCOCCO2 | -1 |
| Oc1ccc(Cl)cc1 | -1 |
| FC(F)(F)F | 1 |
| [N]=O | 1 |

Cited source: the CombiSolv-Exp solvation set (Vermeire and Green 2021)
